system: RPMI-8226 leukemia; assay: NCI-60 one-dose screen, 48 h (100 = growth as untreated, 0 = no growth, -100 = all killed); conditions: 10 µM unless noted
Compounds without any hit were thinned out: in the full panel of roughly 83,000, 20% have a hit.

- Molecule: "CC[N+](CC)=c1cc2oc3cc(N(C)C)ccc3nc-2cc1C"
  growth, %: 45.3
- Molecule: "COc1cccc(-c2cc3c(O)cc(C#N)cc3[nH]2)c1"
  growth, %: 36.1
- Molecule: "O=C(CSc1nc2ccccc2[nH]1)Nc1ccc(-c2nc3ccccc3s2)c(Cl)c1"
  growth, %: 28.9
- Molecule: "CN(C)c1nc2c(N)ncnc2n1C1OC(CO)C(O)C1O (centres undefined)"
  growth, %: 92.1
- Molecule: "O=[N+]([O-])c1cc(S(=O)(=O)Oc2ccccc2)ccc1Cl"
  growth, %: 17
- Molecule: "C=C1CC2(OC1=O)C(=O)N(CCCN1C(=O)C3(CC(=C)C(=O)O3)c3ccccc31)c1ccccc12 (centres undefined)"
  growth, %: -33.3
- Molecule: "O=C1/C(=C/c2ccccc2)CN(C(=O)CCN2CCC(=NO)CC2)C/C1=C\\c1ccccc1"
  growth, %: -28.6
- Molecule: "O=C1/C(=C/c2ccc([N+](=O)[O-])cc2)CN(C(=O)CCN2CCC(=NO)CC2)C/C1=C\\c1ccc([N+](=O)[O-])cc1"
  growth, %: -34.8
- Molecule: "COc1cc(-c2nn(-c3cccc(NC(=O)Nc4ccc(Cl)c(C(F)(F)F)c4)c3)cc2-c2ccncc2)ccc1Cl"
  growth, %: -8.66

====

tested on: SN12C renal; assay: NCI-60 one-dose screen, 48 h; conditions: 10 µM unless noted
About 83,000 compounds went through this panel and 20% of them were active in at least one assay; those are over-represented in the sample as a whole. Calls of active or inactive are those of the source. How the source made its calls: active means growth percent below 10; inactive means the rest.
Classes used: active, inactive

- Compound: "O=c1[nH]c2ccc(Br)cc2c2c1C(c1ccc(Cl)cc1)c1c(ncn3nc(-c4ccco4)nc13)O2 (centres undefined)"
  Assay system: "SN12C renal"
  Group label: "inactive"
- Compound: "Fc1ccccc1-c1nc(-c2nc3cc(Cl)c(Cl)cc3[nH]2)c2ccccn12"
  Assay system: "SN12C renal"
  Group label: "inactive"
- Compound: "COc1ccc(-c2ccc(-c3ccc(-c4ccc(C(=N)N)cc4)s3)s2)cc1OC"
  Assay system: "SN12C renal"
  Group label: "inactive"
- Compound: "O=C1/C(=C/c2ccccc2)CN(C(=O)CCN2CCC(=NO)CC2)C/C1=C\\c1ccccc1"
  Assay system: "SN12C renal"
  Group label: "active"
- Compound: "CCCCN(CCCC)C(=O)CC"
  Assay system: "SN12C renal"
  Group label: "inactive"
- Compound: "NC(=N\\N=C/c1ccc(O)cc1)/C(N)=N\\N=C/c1ccc(O)cc1"
  Assay system: "SN12C renal"
  Group label: "inactive"
- Compound: "COc1ccc(N2CCN(Cc3cc(C(=O)/C=C/c4c[nH]c5ccccc45)ccc3O)CC2)cc1"
  Assay system: "SN12C renal"
  Group label: "inactive"
- Compound: "CCOC(=O)c1ccc2c(c1)nc(-c1ccc(OCc3ccccc3)c(OC)c1)n2-c1cc(C(C)(C)C)[nH]n1"
  Assay system: "SN12C renal"
  Group label: "inactive"
- Compound: "COc1ccc(CN2CCc3c(Sc4ccccc4)nc(N)nc3C2=O)c(OC)c1"
  Assay system: "SN12C renal"
  Group label: "inactive"
- Compound: "CN1CCN(Cc2ccc(NC(=O)c3cncc(C#Cc4cnc(N)c5ccncc45)c3)cc2C(F)(F)F)CC1"
  Assay system: "SN12C renal"
  Group label: "active"
- Compound: "Cc1ccc(S(=O)(=O)NCCNc2cc(-c3cn(C(C)(C)C)nc3-c3cccc(O)c3)ccn2)cc1"
  Assay system: "SN12C renal"
  Group label: "inactive"
- Compound: "CC(C)(C)n1cc(-c2ccnc(NCCNS(=O)(=O)c3ccc(Cl)cc3)c2)c(-c2cccc(O)c2)n1"
  Assay system: "SN12C renal"
  Group label: "inactive"
- Compound: "COc1cc2c(cc1OCCCN1CCN(CCCn3c4ccccc4c4ccccc43)CC1)N=C[C@@H]1CCCN1C2=O"
  Assay system: "SN12C renal"
  Group label: "active"
- Compound: "CN(C)c1cccc2c(S(=O)(=O)/N=C(\\N)Nc3nc4ccccc4s3)cccc12"
  Assay system: "SN12C renal"
  Group label: "inactive"
- Compound: "C=C(C)[C@@H]1C[C@@H]2Cc3cc(Cl)ccc3N1O2"
  Assay system: "SN12C renal"
  Group label: "inactive"
- Compound: "COc1cc(/C=N\\NC(=O)CN2CCN(c3cc4c(cc3F)c(=O)c(C(=O)N/N=C/c3cc(OC)c(OC)c(OC)c3)cn4C3CC3)CC2)cc(OC)c1OC"
  Assay system: "SN12C renal"
  Group label: "active"
- Compound: "Cc1c(C(=N)C(C#N)C#N)c(=N)oc2c1ccc1ccccc12"
  Assay system: "SN12C renal"
  Group label: "inactive"
- Compound: "O=C(O)Cc1cccc(=O)c(O)c1C(=O)O"
  Assay system: "SN12C renal"
  Group label: "inactive"
- Compound: "COc1ccc(Cn2cc3c(c2-c2cc(OC)c(OC)c(OC)c2)CCc2cnoc2-3)cc1"
  Assay system: "SN12C renal"
  Group label: "inactive"
- Compound: "COc1cc2c(cc1O)CCN1C[C@@H](CC(C)C)[C@@H](O)C[C@@H]21"
  Assay system: "SN12C renal"
  Group label: "inactive"
- Compound: "c1cc(C2=N[C@@H]3c4ccccc4C[C@@H]3O2)nc(C2=N[C@@H]3c4ccccc4C[C@@H]3O2)c1"
  Assay system: "SN12C renal"
  Group label: "inactive"
- Compound: "CN(C)c1ncnc2c1ccn2C1OC(CO)C(O)C1O (centres undefined)"
  Assay system: "SN12C renal"
  Group label: "inactive"
- Compound: "Nc1cc2c([nH]c[n+]2CC#CCCl)c(SCC#CCCl)n1"
  Assay system: "SN12C renal"
  Group label: "active"
- Compound: "Cc1nc2cncc(C#Cc3cncc(C(=O)Nc4ccc(CN5CCN(C)CC5)c(C(F)(F)F)c4)c3)c2nc1C"
  Assay system: "SN12C renal"
  Group label: "active"
- Compound: "O=c1[nH]c(Nc2ccc(S(=O)(=O)O)cc2)nc2nc(Nc3ccc(NC(=S)Nc4ccccc4)cc3)nc(-c3ccc(O)cc3O)c12"
  Assay system: "SN12C renal"
  Group label: "inactive"
- Compound: "COc1ccc(S(=O)(=O)Nc2cc(/C=C\\c3cc(OC)c(OC)c(OC)c3)cc(OC)c2OC)cc1"
  Assay system: "SN12C renal"
  Group label: "inactive"
- Compound: "COc1cc(/C(C#N)=C/c2ccc3c(c2OC)OCO3)cc2c1OCO2"
  Assay system: "SN12C renal"
  Group label: "inactive"
- Compound: "C=C1CCC2C(C)(CO)C(O)CCC2(C)C1C/C=C1/C(=O)OCC1Oc1ccccc1C (centres undefined)"
  Assay system: "SN12C renal"
  Group label: "inactive"
- Compound: "CC(C)(C)n1cc(-c2ccnc(NCCCNS(=O)(=O)c3ccc(F)cc3)c2)c(-c2cccc(O)c2)n1"
  Assay system: "SN12C renal"
  Group label: "inactive"
- Compound: "CCOC(=O)C1CCNC(=O)C1=O (centres undefined)"
  Assay system: "SN12C renal"
  Group label: "inactive"
- Compound: "COc1cc(NC(=O)SC2=NCCS2)cc(OC)c1"
  Assay system: "SN12C renal"
  Group label: "inactive"
- Compound: "COc1ccc(C(=O)c2cc(OC)c(OC)c(OC)c2OC)cc1O"
  Assay system: "SN12C renal"
  Group label: "inactive"
- Compound: "CN1CCN(Cc2ccc(NC(=O)c3cncc(C#Cc4cnc(N)c5cnccc45)c3)cc2C(F)(F)F)CC1"
  Assay system: "SN12C renal"
  Group label: "active"
- Compound: "Nc1ncnc2c1c(-c1ccc(Oc3ccccc3)cc1)nn2C[C@@H]1SSC[C@@H]1O"
  Assay system: "SN12C renal"
  Group label: "inactive"
- Compound: "C=C[C@@H]1C[C@@H]2Cc3cc(Cl)ccc3N1O2"
  Assay system: "SN12C renal"
  Group label: "inactive"
- Compound: "COc1cc(-c2nc(N=Nc3c(O)[nH]c4ccc(Br)cc34)[nH]c(=O)c2C#N)cc(OC)c1OC"
  Assay system: "SN12C renal"
  Group label: "inactive"
- Compound: "Cc1nn(-c2ccc([N+](=O)[O-])cc2)c2ncnc(NCCc3ccccc3)c12"
  Assay system: "SN12C renal"
  Group label: "inactive"
- Compound: "COc1ccc(C2=C(c3cc(OC)c(OC)c(OC)c3)C(=O)CC2)cc1"
  Assay system: "SN12C renal"
  Group label: "inactive"
- Compound: "CCCCOc1ccc(/C=C2/SC(N3CCOCC3)=NC2=O)cc1OCC"
  Assay system: "SN12C renal"
  Group label: "inactive"

Reference for the values: PubChem BioAssay (NCI)
